# assay_method_text: optical density change of DRC41 E. coli – strain DRC41, OD650, 24 h, E. coli filamentation project, primary screen (AID 1093);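 note: MC1000 strain lacking acrAB efflux and sulA so SOS filamentation is blocked; test concentration not given here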
# experimental_context: E. coli DRC41 growth, higher = more signal, called active from +8 up or from −8 down
Task for the reader: assign each of the following molecules its reported z-score.
Give bare numbers.

NC(=O)[C@H]1[C@@H]2C(=O)O[C@@H](c3ccccc3)[C@@H](c3ccccc3)N2[C@@H](c2ccc(OCCO)cc2)[C@]12C(=O)Nc1ccc(C#CCCO)cc12
-0.595
COC(=O)[C@@]1(Cc2ccc(F)cc2)[C@H]2c3cc(C(=O)N(C)C)n(CCc4ccc(OC)c(Br)c4)c3C[C@H]2CN1C(=O)c1ccccc1
-1.29

In the following, a different molecule is considered.
Consider "CCCN1C(=O)[C@]2(Cc3ccccc31)N=C(c1ccc(OCCCO)cc1)O[C@@H]2c1ccccc1" . Its measured z-score is -0.0411

====

# assay_method_text: changes in parasitized red cell lysis, either direction – P. falciparum Indochina, OD700, 3 h, PSAC antagonist project, primary screen (AID 1156)
# experimental_context: P. falciparum-infected erythrocytes, osmotic lysis, higher = more signal, called active from +8 up or from −8 down
So basically, the class depends on measured z-score, and the ranges are lo = under 0.2, med = from 0.2 up to 1, hi = 1 and over

Ask | Sort into band: "C=CCNC(=O)[C@@H]1[C@H]2C(=O)O[C@H](c3ccccc3)[C@H](c3ccccc3)N2[C@H](c2ccccc2OCCO)[C@@]12C(=O)N(C(=O)OCCOC)c1ccc(C#CC3(O)CCCCCC3)cc12"
Reply | lo

Ask | Sort into band: Cc1cc(C)c(C(O)C2C=CC3C(=O)N(c4ccccc4)C(=O)C3N2Nc2ccccc2F)c(C)c1 (stereo unspecified)
Reply | lo

Ask | Sort into band: "O=C(O)[C@@H]1C[C@@H]2C(=O)N3CCC[C@H]3C(=O)N2[C@@H]1c1ccc(O)cc1"
Reply | lo

Ask | Sort into band: "[N-]=[N+]=Nc1ccccc1C[C@@]1(C(N)=O)N=C(c2ccc(OCCCO)cc2)O[C@@H]1c1ccccc1N=[N+]=[N-]"
Reply | hi

Ask | Sort into band: CC(CO)N1C(=O)[C@@H]2[C@H]3C(=O)OCC=C[C@H]3OC23C=CCN(Cn2nnc4ccccc42)C(=O)[C@@H]13 (stereo partly specified)
Reply | lo

Ask | Sort into band: "COc1ccc(CCNC(=O)[C@@]2(c3ccc([N+](=O)[O-])cc3)CC(=O)N(C3CCCCC3)[C@@H]2c2ccc(CO)cc2)cc1"
Reply | hi

====

# assay_method_text: inhibition of PAO1 biofilm formation – strain PAO1, LB-PBS medium, absorbance 600 nm, primary screen (AID 1176); note: test concentration not given here
# experimental_context: P. aeruginosa PAO1 growth/biofilm, A600, 12 h; higher = more signal
endpoint_label: z-score
Give bare numbers.

// known answers, use as guide
COc1cc(NN2C(C(O)c3ccc(N(C)C)cc3)C=CC3C(=O)N(c4ccccc4)C(=O)C32)cc(OC)c1OC (stereo not given)
0.794
Cc1ccc(C(C)CC(O)C2C=CC3C(=O)N(c4ccccc4)C(=O)C3N2Nc2ccccc2)o1 (stereo not given)
0.574
CCCNC(=O)[C@@H]1c2ccccc2C(=O)N(Cc2ccc(OC(F)(F)F)cc2)[C@H]1c1ccc(CO)cc1
-0.217
COCCCNC(=O)[C@@]1(CCC(=O)OC(C)(C)C)N=C(c2ccc(OCCCO)cc2)O[C@H]1c1ccccc1N=[N+]=[N-]
-0.165

In the following, a different molecule is considered.
Consider "NCCCCCCNC(=O)[C@@H]1C[C@@H]2C(=O)N[C@@H](CCCCN)C(=O)N2[C@@H]1c1ccc(O)cc1" . Its measured z-score is 2.5

====

# assay_method_text: plasmodial surface anion channel blockers, osmotic lysis – cell-based, P. falciparum Indochina, OD700, 18 h, primary screen (AID 1157)
# experimental_context: P. falciparum Indochina infected erythrocytes, osmotic lysis OD700, 18 h; higher = more signal, called active from +8 up or from −8 down
endpoint_label: z-score
Numbers only.

Field: z-score. Fill in for each record below.
1. [N-]=[N+]=Nc1ccccc1[C@@H]1OC(c2ccc(OCCCO)cc2)=N[C@]1(Cc1ccccc1)C(=O)N1CCCCC1
2. CCCCCCCCCC(O)C1C=CC2C(=O)N(c3ccccc3)C(=O)C2N1Nc1cc(OC)c(OC)c(OC)c1 (stereo not drawn)
3. C=C(C(=O)CC[C@H](OC(=O)c1ccccc1-c1ccccc1C(=O)O)c1cccc(OCCO)c1)C(C)C

Reply |
4
-0.449
0.503

====

# test_system: Calmodulin-1 (Homo sapiens)
# assay_method_text: small molecules binding calmodulin-1 with EGTA – biochemical, small-molecule microarray, Cy5-labelled CALM1, profiling panel (AID 1111);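 note: labelled calmodulin applied in Tris saline Tween buffer holding calcium plus EGTA and DTT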
# experimental_context: Cy5-CALM1 binding fluorescence, higher = more signal
endpoint_label: composite z-score
Give bare numbers.

CC(=O)NCCCC[C@@H]1NC(=O)[C@@H]2C[C@H](C(=O)NCCCCCN)[C@H](c3cccc(OCCO)c3)N2C1=O
1.09
[N-]=[N+]=Nc1ccccc1C[C@@]1(C(N)=O)N=C(c2ccc(OCCCO)cc2)O[C@@H]1c1ccccc1N=[N+]=[N-]
1.51
COc1cc2c(cc1O)C(c1ccc(CN3CCCC3)cc1)N(Cc1cc3c(cc1Br)OCO3)CC2 (stereo not drawn)
1.47

Field: composite z-score. Fill in for each record below.
1. COc1cc(C(O)C2C=CC3C(=O)N(C)C(=O)C3N2Nc2ccccc2)cc(OC)c1OC (stereo not drawn)
2. COc1cc(OC)c(C(O)C2C=CC3C(=O)N(Cc4ccccc4)C(=O)C3N2n2cnnc2)cc1Br (stereo not drawn)
3. COC(=O)[C@@]1(Cc2ccc(F)cc2)[C@H]2c3cc(C(=O)N(C)C)n(CCc4ccc(OC)c(Br)c4)c3C[C@H]2CN1C(=O)c1ccccc1
4. CCCC[C@@H](O)C1=C(COC)C[C@H]2C(=O)N(Cc3ccccc3)C(=O)[C@H]2[C@H]1CO
5. COC(=O)c1c(CC[C@@H](CO)NC(=O)N[C@@H](C)Cn2cc(-c3ccccn3)nn2)oc(C(C)=O)c1C(=O)OC

Reply |
1: 1.8; 2: 0.181; 3: 0.314; 4: -0.37; 5: -0.063

====

# test_system: NADPH oxidase 2 (Homo sapiens) (UniProt P04839)
# Sequence (P04839 whole entry, looked up): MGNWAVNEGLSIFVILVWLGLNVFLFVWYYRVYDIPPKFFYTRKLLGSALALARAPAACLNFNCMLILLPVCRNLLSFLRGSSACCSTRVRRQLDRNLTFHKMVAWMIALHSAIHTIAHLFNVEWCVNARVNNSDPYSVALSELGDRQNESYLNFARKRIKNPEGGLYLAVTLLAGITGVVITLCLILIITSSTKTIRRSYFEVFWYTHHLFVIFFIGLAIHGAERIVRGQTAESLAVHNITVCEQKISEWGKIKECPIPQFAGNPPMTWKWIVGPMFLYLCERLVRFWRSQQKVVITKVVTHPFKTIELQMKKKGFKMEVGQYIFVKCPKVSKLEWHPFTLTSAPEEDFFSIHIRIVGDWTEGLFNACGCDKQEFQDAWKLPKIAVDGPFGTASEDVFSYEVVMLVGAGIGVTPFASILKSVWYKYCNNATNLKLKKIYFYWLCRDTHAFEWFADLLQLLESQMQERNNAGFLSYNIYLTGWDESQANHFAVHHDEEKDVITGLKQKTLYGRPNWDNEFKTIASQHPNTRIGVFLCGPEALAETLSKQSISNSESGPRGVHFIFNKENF
# assay_method_text: compounds shifting NOX2 Amplex Red fluorescence – cell-based, HEK293-NOX2, PMA-stimulated, NOX inhibitor project, primary screen (AID 1159); note: test concentration not given here
# experimental_context: 45 min, higher = more signal, called active from +8 up or from −8 down
endpoint_label: z-score
Answers are plain numbers.

// known answers, use as guide
COCCCNC(=O)[C@@]1(CCC(=O)OC(C)(C)C)N=C(c2ccc(OCCCO)cc2)O[C@H]1c1ccccc1N=[N+]=[N-]
-1.35
[N-]=[N+]=Nc1ccccc1[C@@H]1OC(c2ccc(OCCCO)cc2)=N[C@]1(Cc1ccccc1)C(=O)O
-1.61
COC(=O)[C@@]1(Cc2ccc(OC)cc2)[C@H]2c3cc(C(=O)N4CCCC4)n(CCO)c3C[C@H]2CN1C(=O)c1ccccc1
-0.0722
CCCC[C@@H](O)C1=C(COC)C[C@H]2C(=O)N(C)C(=O)[C@H]2[C@H]1CO
-0.342
COCCOC(=O)N1C(=O)[C@@]2(c3cc(C#CC4(O)CCCCCC4)ccc31)[C@H](C(=O)Nc1nc3ccccc3s1)[C@H]1C(=O)O[C@H](c3ccccc3)[C@H](c3ccccc3)N1[C@@H]2c1ccc(O)cc1
1.01
NCCCCCCNC(=O)[C@@H]1C[C@@H]2C(=O)N[C@@H](CCCCN)C(=O)N2[C@@H]1c1ccc(O)cc1
-1.77
CC(C)[Si]1(C(C)C)OCc2cc(C3CC3)nc(-c3ccc(Oc4ccccc4)cc3)c21
1.11
O=C(NCc1ccc(F)cc1)[C@H]1C[C@H]2C(=O)NCC(=O)N2[C@H]1c1ccc(O)cc1
0.992

Consider "CCOC(=O)C[C@H]1[C@H](OC(=O)c2ccc(C(=O)c3ccccc3)cc2)[C@@H](NC(=O)C2CCCCC2)c2cc(OCCCO)ccc2N1C(=O)c1ccc2ccccc2n1" . Its measured z-score is -1.62

====

# assay_method_text: probe aShh binding to arrayed compounds – biochemical, biotinylated probe, 635/667 nm fluorescence, primary screen (AID 1114);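 note: probe is biotin-labelled aShh protein from a stem cell growth factor screen; measures binding of labelled protein to compounds printed on the slide; score merges feature fluorescence at 667 nm with signal-to-noise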
# experimental_context: small-molecule microarray, higher = more signal
endpoint_label: composite z-score

// known answers, use as guide
Cc1ccc(NN2C(C(O)c3c(F)cccc3Cl)C=CC3C(=O)N(C4CCCCC4)C(=O)C32)cc1 (stereo not drawn)
0.261
COCC(=C=CC[C@H](O)c1ccccc1OCCO)C[C@H](O)c1ccccn1
-0.214

Consider "C=CCNC(=O)[C@H]1[C@@H]2C(=O)O[C@@H](c3ccccc3)[C@@H](c3ccccc3)N2[C@@H](c2ccccc2OCCO)[C@]12C(=O)N(C(=O)OCCOC)c1ccc(C#CC3(O)CCCCCC3)cc12" . Its measured composite z-score is 0.176
